Measured activity [%] (%-substrate conversion after 20 min incubation) accompanies every entry in the list below.
- measurement.target: R140Q IDH2 (Homo sapiens, UniProt P48735, R140Q)
- Construct: made in house; host or cells: Sf21 insect cells (cell pellets prepared at Evotec)
- Sequence (P48735 40-452 R140Q): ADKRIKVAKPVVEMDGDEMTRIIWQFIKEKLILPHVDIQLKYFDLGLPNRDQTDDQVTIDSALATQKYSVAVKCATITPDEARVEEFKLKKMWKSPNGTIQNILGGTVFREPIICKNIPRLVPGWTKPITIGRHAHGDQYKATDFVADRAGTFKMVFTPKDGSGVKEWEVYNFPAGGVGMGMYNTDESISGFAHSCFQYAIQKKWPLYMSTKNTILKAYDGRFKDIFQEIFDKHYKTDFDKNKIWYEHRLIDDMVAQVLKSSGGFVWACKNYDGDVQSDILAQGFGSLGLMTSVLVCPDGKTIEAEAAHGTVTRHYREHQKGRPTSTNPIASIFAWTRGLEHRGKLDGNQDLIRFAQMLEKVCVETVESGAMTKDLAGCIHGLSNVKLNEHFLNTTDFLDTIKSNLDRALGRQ
- protocol: Absorbance assay, variant activity in the presence of equimolar 2OG (inhibition screen)
- Type: biochemical
- condition.notes: 6.0 mM 2OG and 6.0 mM test compound, 0.03 μM R140Q IDH2, 50 μM NADPH
Structures can show the parent of a compound that is named as a salt.
observed.property: activity [%] (%-substrate conversion after 20 min incubation) (%)

| compound | assay.value |
| --- | --- |
| CC(C)CC(=O)C(=O)O | 106 |
| O=C(O)C(=O)CC(Cc1ccccc1)C(=O)O (racemic) | 106 |
| O=C(O)CCC(=O)C(=O)O [2OG, 2-oxoglutarate, reference compound] | 100 |
| C[C@@](O)(CC(=O)O)C(=O)O [(R)-citramalic acid] | 110 |
| O=C[C@H](O)[C@@H](O)[C@H](O)[C@H](O)C(=O)O | 112 |
| COC(=O)/C=C/C(=O)O [mono-methyl fumarate] | 98 |
| O=C(O)C(=O)CC(O)C(=O)O (racemic) [DL-4-hydroxy-2-oxoglutaric acid] | 124 |
| CCC(CC(=O)O)C(=O)C(=O)O (racemic) | 865 |
| O=C(O)C(=O)CCc1ccccc1 | 98 |
| COc1ccc(CC(CC(=O)O)C(=O)C(=O)O)cc1 (racemic) | 125 |

====

Each entry below carries its reported activity [%] (%-substrate conversion after 20 min incubation).
- measurement.target: WT IDH2 (Homo sapiens)
- Construct: made in house; host or cells: Sf21 insect cells (cell pellets prepared at Evotec)
- Sequence (P48735 40-452): as the sequence (P48735 40-452 R140Q) above, with Q101R counted along it
- protocol: Absorbance assay, WT activity in the presence of equimolar DL-isocitrate (inhibition)
- Format: biochemical
- condition.notes: […] isocitrate and […] test compound, 75 μM NADP+, 2.0 nM WT IDH2
Counter-ions that a name gives are not always drawn.
observed.property: activity [%] (%-substrate conversion after 20 min incubation) (%)

| compound | assay.value |
| --- | --- |
| COC(=O)/C=C/C(=O)O [mono-methyl fumarate] | 98 |
| O=C(O)C(=O)C1CC=CCC1C(=O)O (mixture of isomers) [compound 27] | 92 |
| CSCCC(=O)C(=O)O [4-methylthio-2-oxobutyric acid] | 98 |
| O=C(O)C(=O)c1cscc1C(=O)O [compound 31] | 101 |
| CC(CC(=O)O)C(=O)O (racemic) [DL-2-methylsuccinic acid] | 99 |
| CCCC(CC(=O)C(=O)O)C(=O)O (racemic) [compound 15] | 98 |
| O=C(O)CC(=O)C(=O)O [oxaloacetic acid] | 98 |
| C/C(=C\C(=O)O)C(=O)O [mesaconic acid] | 100 |
| O=C(O)[C@@H]1CCCN1 [L-proline] | 98 |
| CC(C)(C)CCC(CC(=O)O)C(=O)C(=O)O (racemic) [compound 5] | 98 |
| C[C@@](O)(CC(=O)O)C(=O)O [(R)-citramalic acid] | 99 |

====

- measurement.target: WT IDH1 (Homo sapiens)
- Construct: made in house; host or cells: Escherichia coli BL21(DE3) pLyS
- Sequence (O75874 whole entry): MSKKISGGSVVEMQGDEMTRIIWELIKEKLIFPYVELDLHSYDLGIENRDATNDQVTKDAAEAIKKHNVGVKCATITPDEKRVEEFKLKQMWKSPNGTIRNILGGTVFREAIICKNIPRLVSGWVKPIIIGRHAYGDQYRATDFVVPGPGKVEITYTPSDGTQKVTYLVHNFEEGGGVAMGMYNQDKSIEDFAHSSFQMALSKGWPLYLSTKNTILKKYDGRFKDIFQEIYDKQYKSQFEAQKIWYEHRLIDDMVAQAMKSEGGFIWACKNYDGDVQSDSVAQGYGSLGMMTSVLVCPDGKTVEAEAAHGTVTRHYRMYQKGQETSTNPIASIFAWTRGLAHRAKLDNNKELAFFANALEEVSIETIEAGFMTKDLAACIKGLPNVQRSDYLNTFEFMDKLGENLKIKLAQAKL
- protocol: Absorbance assay, WT activity in the presence of equimolar DL-isocitrate (inhibition)
- Type: biochemical
- condition.notes: […] isocitrate and […] test compound, 75 μM NADP+, 2.0 nM WT IDH1
Each entry below carries its reported activity [%] (%-substrate conversion after 20 min incubation).
observed.property: activity [%] (%-substrate conversion after 20 min incubation) (%)

| molecule | assay.value |
| --- | --- |
| COC(=O)CCC(=O)C(=O)OC | 98 |
| CCC(CC(=O)C(=O)O)C(=O)O (racemic) | 94 |
| O=C(O)C(=O)c1cscc1C(=O)O | 103 |
| CC(CC(=O)C(=O)O)C(=O)O (stereo not shown) | 107 |
| O=C(O)C(=O)CC(CCCc1ccccc1)C(=O)O (racemic) | 101 |
| O=CC(=O)O | 104 |
| O=C(O)C(=O)C1CCC(C(=O)O)CC1 (mixture of isomers) | 104 |
| O=C(O)C(=O)c1cccc(C(=O)O)c1 | 94 |
| NC(CCC(=O)O)C(=O)O (racemic) | 94 |
| O=C(O)C(=O)CS | 88 |

Reference for the values: paper PMC9939733
